Where do these numbers come from? They come from patent US20260216242A1.

Molecular target: T1, Human ALPL (leucine zipper) (human)
T1 construct: Whole entry: fused with a cysteine stabilised leucine zipper and His tag; also called hALPL
T1 chain: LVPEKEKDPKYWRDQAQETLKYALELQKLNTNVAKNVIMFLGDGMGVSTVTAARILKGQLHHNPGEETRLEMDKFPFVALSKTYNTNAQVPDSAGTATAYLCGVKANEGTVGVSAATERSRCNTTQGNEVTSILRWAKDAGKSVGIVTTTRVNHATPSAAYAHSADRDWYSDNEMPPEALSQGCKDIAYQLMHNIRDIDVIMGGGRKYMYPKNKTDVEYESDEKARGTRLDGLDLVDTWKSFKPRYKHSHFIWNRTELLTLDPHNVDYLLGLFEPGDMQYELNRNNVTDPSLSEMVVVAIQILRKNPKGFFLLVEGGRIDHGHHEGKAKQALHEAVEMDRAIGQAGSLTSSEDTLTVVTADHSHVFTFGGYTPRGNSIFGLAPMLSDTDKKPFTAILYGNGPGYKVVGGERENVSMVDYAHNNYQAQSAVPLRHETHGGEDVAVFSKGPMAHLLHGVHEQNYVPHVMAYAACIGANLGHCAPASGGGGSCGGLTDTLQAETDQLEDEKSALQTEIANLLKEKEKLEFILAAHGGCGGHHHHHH
Experiment: BLI, antigen immobilised
measurement.label: binding result

>>> result("F12 (VHH, not shown: small tags and cut ends) VHH: QVQLVESGGGLVEAGGSLRLSCAVSGSALSDYNIGWFRQAPGKEREFVARKTWDGSSTKYDDSVKGRFTVSIDNAKNTAYLQMNSLKTEDTAVYYCAAGRYSRVRGWEYDYWGQRTQVTVSS")
"no binding"
>>> result("C05 (VHH, not shown: small tags and cut ends) VHH: QVQLVESGGGLVQAGGSLRLSCAASRRSFSEYAMGWFRQAPGKEREFVAAIGWSGVIEYADSVKGRFTISRDNAKDTVYLQMNSLKPEDTAVYYCAAGLGIRVVSQTPAYWGQGTQVTVSS")
"no binding"
